- Tested on: giant foxtail
- test.description: Test B pre/postemergence giant foxtail
- Assay type: in vivo, Setaria faberii
- assay.conditions: Rate 250 g/ha, Postemergence; scale of 0 to 10 where 0 is no effect and 10 is complete control
readout.label: Plant response rating, Giant foxtail

1) CCN(C(=O)n1oc(=O)n(C(C)C)c1=O)C1CCCCC1	0
2) Cc1ccccc1-n1c(=O)on(C(=O)N(c2ccc(Oc3ccccc3)cc2)C(C)C)c1=O	0
3) C=CCCCn1c(=O)on(C(=O)N(c2ccccc2)C(C)C)c1=O	8
4) CC(C)N(C(=O)n1oc(=O)n(CCC2OCCCO2)c1=O)c1ccc(Cl)cc1	4
5) CC(C)N(C(=O)n1oc(=O)n(CCc2ccccc2)c1=O)c1ccccc1	0

----------
Listing of entries alongside the reported Plant response rating, Wheat (winter).
- Tested on: winter wheat
- test.description: Test E winter wheat
- Assay type: in vivo, Triticum aestivum
- assay.conditions: Rate 500 g/ha, Postemergence; 0 to 100 scale, 0 is no effect, 100 is complete control
readout.label: Plant response rating, Wheat (winter)

1. CC(C)N(C(=O)n1oc(=O)n(Cc2ccccn2)c1=O)c1ccc(F)cc1 [Compound 267]	70
2. Cc1nc(C)c(Cn2c(=O)on(C(=O)N(c3ccc(F)cc3F)C(C)C)c2=O)s1 [Compound 233]	55
3. CC(C)N(C(=O)n1oc(=O)n(C2CC3CCC2C3)c1=O)c1ccccc1 (stereo not shown) [Compound 328]	70
4. CC1CC1n1c(=O)on(C(=O)N(c2ccccc2)C(C)C)c1=O (stereo not shown) [Compound 370]	85

----------
- System: blackgrass
- test.description: Test B pre/postemergence blackgrass
- Type: in vivo, Alopecurus myosuroides
- assay.conditions: Preemergence, Rate 62 g/ha; scale 0 to 10 (0 no effect, 10 complete control)
readout.label: Plant response rating, Blackgrass

1) CC1CC1n1c(=O)on(C(=O)N(c2ccccc2)C(C)C)c1=O (stereo not shown) [Compound 370]	6
2) CC(C)Cn1c(=O)on(C(=O)N(c2ccccc2)C(C)C)c1=O [Compound 410]	3
3) CC1CC1n1c(=O)on(C(=O)N(c2ccc(F)cc2F)C(C)C)c1=O (stereo not shown) [Compound 372]	5
4) COCC(C)n1c(=O)on(C(=O)N(c2ccc(F)cc2F)C(C)C)c1=O (stereo not shown) [Compound 357]	7

----------
- Tested on: soybean
- test.description: Test B pre/postemergence soybean
- Type: in vivo, Glycine max
- assay.conditions: Preemergence, Rate 125 g/ha; scale 0 to 10, 0 is no effect, 10 is complete control
- Method: […] At the same time, these crop and weed species were also treated with postemergence applications of test chemicals formulated in the same manner. […] Treated plants and controls were maintained in a greenhouse for twelve to sixteen days, after which all species were compared to controls and visually evaluated. […]
Listing of entries alongside the reported Soybean plant response rating.
readout.label: Soybean plant response rating

1. CC(C)N(C(=O)n1oc(=O)n(C[Si](C)(C)C)c1=O)c1ccc(F)cc1F	0
2. CC(C)N(C(=O)n1oc(=O)n(CCCNC(=O)CCl)c1=O)c1ccccc1	0
3. CCC(=O)Cn1c(=O)on(C(=O)N(c2ccc(F)cc2F)C(C)C)c1=O	0
4. COCn1c(=O)on(C(=O)N(c2ccc(F)cc2F)C(C)C)c1=O	3
5. CC(C)N(C(=O)n1oc(=O)n(CC2CC2)c1=O)c1ccc(F)cc1F	0
6. CCOC(=O)C=C(Cn1c(=O)on(C(=O)N(c2ccc(Cl)cc2)C(C)C)c1=O)OCC	0
7. CC(C)N(C(=O)n1oc(=O)n(CCC2OCCCO2)c1=O)c1ccc(Cl)cc1	0
8. CCN(CC)C(=O)Cn1c(=O)on(C(=O)N(c2ccc(F)cc2F)C(C)C)c1=O	0
9. CC(C)N(C(=O)n1oc(=O)n(CCCF)c1=O)c1ccc(F)cc1F	3

----------
- Tested on: velvetleaf
- test.description: Test B pre/postemergence velvetleaf
- Assay type: in vivo, Abutilon theophrasti
- assay.conditions: Preemergence, Rate 62 g/ha; scale 0 to 10 (0 no effect, 10 complete control)
readout.label: Velvetleaf plant response rating

1) CCOC(=O)C=C(Cn1c(=O)on(C(=O)N(c2ccc(Cl)cc2)C(C)C)c1=O)OCC [Compound 549]	0
2) C#CC(C)n1c(=O)on(C(=O)N(c2ccccc2)C(C)C)c1=O (stereo not drawn) [Compound 609]	7
3) CC(C)N(C(=O)n1oc(=O)n(CCc2ccccc2)c1=O)c1ccccc1 [Compound 567]	0
4) CC(=O)OCCCCn1c(=O)on(C(=O)N(c2ccc(Cl)cc2)C(C)C)c1=O [Compound 536]	0
5) Cc1nn(C)c(C)c1-n1c(=O)on(C(=O)N(c2ccc(F)cc2F)C(C)C)c1=O [Compound 76]	0
6) CCN(Cc1ccccc1)C(=O)n1oc(=O)n(-c2ccccc2C)c1=O [Compound 71]	0

----------
- Test system: velvetleaf
- test.description: Test B pre/postemergence velvetleaf
- Assay type: in vivo, Abutilon theophrasti
- assay.conditions: Preemergence, Rate 62 g/ha; scale of 0 to 10 where 0 is no effect and 10 is complete control
Listing of entries alongside the reported Velvetleaf plant response rating.
readout.label: Velvetleaf plant response rating

1. CC(C)N(C(=O)n1oc(=O)n(COCc2ccccc2)c1=O)c1ccc(F)cc1	0
2. CCN(Cc1ccccc1)C(=O)n1oc(=O)n(C(C)C)c1=O	0
3. CCN(C(=O)n1oc(=O)n(C2CC2)c1=O)C1CCCCC1	0
4. Cc1nc(C)c(-n2c(=O)on(C(=O)N(c3ccc(F)cc3)C(C)C)c2=O)s1	0
5. CC(C)N(C(=O)n1oc(=O)n(CCCCF)c1=O)c1ccc(F)cc1	3
6. Cc1cccc(C(C)(C)C)c1-n1c(=O)on(C(=O)N(c2ccccc2)C(C)C)c1=O	0
7. CCc1cccc(CC)c1-n1c(=O)on(C(=O)N(c2ccc(F)cc2)C(C)C)c1=O	0
8. CC(C)N(C(=O)n1oc(=O)n(C2CCCC2)c1=O)c1ccc(F)cc1	2
9. Cc1ccccc1-n1c(=O)on(C(=O)N(c2ccc(F)cc2Cl)C(C)C)c1=O	0
10. CC(C)N(C(=O)n1oc(=O)n(C2CC3CCC2C3)c1=O)c1ccccc1 (stereo not drawn)	0
11. CC(C)N(C(=O)n1oc(=O)n(CCF)c1=O)c1ccccc1	0
12. CC(C)N(C(=O)n1oc(=O)n(C[C@H](C)Cl)c1=O)c1ccc(F)cc1F	6
13. CC(C)N(C(=O)n1oc(=O)n(Cc2ccccn2)c1=O)c1ccc(F)cc1	0
14. COc1cc(C)cc(C)c1-n1c(=O)on(C(=O)N(c2ccc(F)cc2)C(C)C)c1=O	0
15. CC(C)N(C(=O)n1oc(=O)n(C(CF)CCl)c1=O)c1ccc(F)cc1 (racemic)	3

----------
- System: corn
- test.description: Test B pre/postemergence corn
- Assay type: in vivo, Zea mays
- assay.conditions: Preemergence, Rate 62 g/ha; scale of 0 to 10 where 0 is no effect and 10 is complete control
Listing of entries alongside the reported Corn plant response rating.
readout.label: Corn plant response rating

1. Cc1ccccc1-n1c(=O)on(C(=O)N(c2ccc(C(C)C)cc2)C(C)C)c1=O	0
2. CC(C)N(C(=O)n1oc(=O)n(CC(=O)C2CCC2)c1=O)c1ccc(F)cc1F	0
3. [2H]C([2H])([2H])n1c(=O)on(C(=O)N(c2ccc(F)cc2)C(C)C)c1=O	3
4. CCCCCCCCCCCCCCCCCCCn1c(=O)on(C(=O)N(c2ccc(F)cc2)C(C)C)c1=O	0

----------
- System: giant foxtail
- test.description: Test B pre/postemergence giant foxtail
- Format: in vivo, Setaria faberii
- assay.conditions: Rate 62 g/ha, Postemergence; scale of 0 to 10 where 0 is no effect and 10 is complete control
Listing of entries alongside the reported Giant foxtail plant response rating.
readout.label: Giant foxtail plant response rating

1. CC(C)N(C(=O)n1oc(=O)n(CC#N)c1=O)c1ccc(F)cc1 [Compound 395]	0
2. CC(C)N(C(=O)n1oc(=O)n(C2(C)CC2)c1=O)c1ccc(Cl)cc1 [Compound 361]	1
3. CC(C)N(C(=O)n1oc(=O)n(C2CCC2)c1=O)c1ccc(F)cc1F [Compound 351]	0
4. Cc1noc(C)c1-n1c(=O)on(C(=O)N(c2ccc(F)cc2F)C(C)C)c1=O [Compound 156]	0
5. C=CCn1c(=O)on(C(=O)N(c2ccc(F)cc2F)C2CC2)c1=O [Compound 127]	0
6. Cc1ccccc1-n1c(=O)on(C(=O)N(c2ccc(C(C)C)cc2)C(C)C)c1=O [Compound 231]	0
7. CC(C)Cn1c(=O)on(C(=O)N(c2ccccc2)C(C)C)c1=O [Compound 410]	8
8. Cc1ccccc1-n1c(=O)on(C(=O)N(c2cccc(F)c2F)C(C)C)c1=O [Compound 171]	0

----------
Listing of entries alongside the reported Plant response rating, Blackgrass.
- Tested on: blackgrass
- test.description: Test B pre/postemergence blackgrass
- Format: in vivo, Alopecurus myosuroides
- assay.conditions: Preemergence, Rate 250 g/ha; scale of 0 to 10 where 0 is no effect and 10 is complete control
readout.label: Plant response rating, Blackgrass

1. CCN(Cc1ccccc1)C(=O)n1oc(=O)n(-c2ccccc2C)c1=O [Compound 71]	0
2. COc1ccc(-n2c(=O)on(C(=O)N(c3ccc(F)cc3)C(C)C)c2=O)cc1 [Compound 5]	3
3. CCN(C(=O)n1oc(=O)n(-c2ccc(F)cc2F)c1=O)C1CCCCC1 [Compound 23]	2

Sourced from patent US6737383B1
